# Test system: Rattus norvegicus
# PROTOCOL: Antidiuretic activity in fasted and hydrated Wistar rat assessed as compound potency to yield antidiuresis time of 200 mins required for urinary excretion of half the water load at 0.001 to 100 nmol/kg, sc administered immediately after water loading by modified Burn test relative to 1-deamino-8-D-arginine vasopressin
# Type: functional, Urine
Where a SMILES comes first, the peptide text is derived from it. Bridges are numbered along the chain shown (N, C = ends). [ ]: non-standard residue; d: D form. Aic = NC1(C(=O)O)Cc2ccccc2C1
Lab note: compare Activity against 8%. Equal or greater, write True. Smaller, write False.

COMPOUND	STUDY_TARGET	ASSIGNED_CATEGORY
N=C(N)NCCC[C@H](NC(=O)[C@@H]1CCCN1C(=O)[C@@H]1CSSC[C@H](N)C(=O)NC2(Cc3ccccc3C2)C(=O)N[C@@H](Cc2ccccc2)C(=O)N[C@@H](CCC(N)=O)C(=O)N[C@@H](CC(N)=O)C(=O)N1)C(=O)NCC(N)=O (H-C[Aic]FQNCPRG-NH2; disulfide 1-6)	Rattus norvegicus	True
CC(C)[C@@H]1NC(=O)[C@H](Cc2ccccc2)NC(=O)[C@H](C(c2ccccc2)c2ccccc2)NC(=O)CCSSC[C@@H](C(=O)N2CCC[C@H]2C(=O)N[C@H](CCCNC(=N)N)C(=O)NCC(N)=O)NC(=O)[C@H](CC(N)=O)NC1=O (stereo in doubt; form 1)	Rattus norvegicus	False
CC(C)[C@@H]1NC(=O)[C@H](Cc2ccccc2)NC(=O)[C@@H](C(c2ccccc2)c2ccccc2)NC(=O)CCSSC[C@@H](C(=O)N2CCC[C@H]2C(=O)N[C@H](CCCNC(=N)N)C(=O)NCC(N)=O)NC(=O)[C@H](CC(N)=O)NC1=O	Rattus norvegicus	True
N=C(N)NCCC[C@H](NC(=O)[C@@H]1CCCN1C(=O)[C@@H]1CSSC2(CCCCC2)CC(=O)N[C@@H](C(c2ccccc2)c2ccccc2)C(=O)N[C@@H](Cc2ccccc2)C(=O)N[C@@H](CCC(N)=O)C(=O)N[C@@H](CC(N)=O)C(=O)N1)C(=O)NCC(N)=O	Rattus norvegicus	False
N=C(N)NCCC[C@@H](NC(=O)[C@@H]1CCCN1C(=O)[C@@H]1CSSCCC(=O)N[C@H](C(c2ccccc2)c2ccccc2)C(=O)N[C@@H](Cc2ccccc2)C(=O)N[C@@H](CCC(N)=O)C(=O)N[C@@H](CC(N)=O)C(=O)N1)C(=O)NCC(N)=O	Rattus norvegicus	True
NC(=O)CC[C@@H]1NC(=O)[C@H](Cc2ccccc2)NC(=O)[C@H](Cc2ccc(O)cc2)NC(=O)[C@@H](N)CSSC[C@@H](C(=O)N2CCC[C@H]2C(=O)N[C@H](CCCN=C(N)N)C(=O)NCC(N)=O)NC(=O)[C@H](CC(N)=O)NC1=O	Rattus norvegicus	False
N=C(N)NCCC[C@H](NC(=O)[C@@H]1CCCN1C(=O)[C@@H]1CSSCCC(=O)NC(C(c2ccccc2)c2ccccc2)C(=O)N[C@@H](Cc2ccccc2)C(=O)N[C@@H](CCC(N)=O)C(=O)N[C@@H](CC(N)=O)C(=O)N1)C(=O)NCC(N)=O (single isomer, unassigned)	Rattus norvegicus	True

---

# Test system: Rattus norvegicus
# PROTOCOL: Antidiuretic activity in fasted and hydrated Wistar rat assessed as compound required to yield antidiuresis time of 60 mins required for urinary excretion of half the water load at 0.001 to 100 nmol/kg, sc administered immediately after water loading by modified Burn test
# Format: functional, Urine
Where a SMILES comes first, the peptide text is derived from it. Bridges are numbered along the chain shown (N, C = ends). [ ]: non-standard residue; d: D form. Aic = NC1(C(=O)O)Cc2ccccc2C1
Lab note: compare Activity with 4000 IU/mg, writing 1.0 if less and 0.0 if equal or more.

COMPOUND	STUDY_TARGET	ASSIGNED_CATEGORY
N=C(N)NCCC[C@H](NC(=O)[C@@H]1CCCN1C(=O)[C@@H]1CSSCCC(=O)N[C@H](C(c2ccccc2)c2ccccc2)C(=O)N[C@@H](Cc2ccccc2)C(=O)N[C@@H](CCC(N)=O)C(=O)N[C@@H](CC(N)=O)C(=O)N1)C(=O)NCC(N)=O	Rattus norvegicus	0.0
CC(C)[C@@H]1NC(=O)[C@H](Cc2ccccc2)NC(=O)[C@H](C(c2ccccc2)c2ccccc2)NC(=O)CCSSC[C@@H](C(=O)N2CCC[C@H]2C(=O)N[C@H](CCCNC(=N)N)C(=O)NCC(N)=O)NC(=O)[C@H](CC(N)=O)NC1=O (stereo in doubt; form 2)	Rattus norvegicus	0.0
CC(C)[C@@H]1NC(=O)[C@H](Cc2ccccc2)NC(=O)[C@H](C(c2ccccc2)c2ccccc2)NC(=O)CCSSC[C@@H](C(=O)N2CCC[C@H]2C(=O)N[C@@H](CCCNC(=N)N)C(=O)NCC(N)=O)NC(=O)[C@H](CC(N)=O)NC1=O	Rattus norvegicus	1.0
N=C(N)NCCC[C@H](NC(=O)[C@@H]1CCCN1C(=O)[C@@H]1CSSC2(CCCCC2)CC(=O)N[C@@H](C(c2ccccc2)c2ccccc2)C(=O)N[C@@H](Cc2ccccc2)C(=O)N[C@@H](CCC(N)=O)C(=O)N[C@@H](CC(N)=O)C(=O)N1)C(=O)NCC(N)=O	Rattus norvegicus	1.0
CC(C)[C@@H]1NC(=O)[C@H](Cc2ccccc2)NC(=O)[C@H](Cc2ccc(O)cc2)NC(=O)[C@@H](N)CSSC[C@@H](C(=O)N2CCC[C@H]2C(=O)N[C@@H](CCCNC(=N)N)C(=O)NCC(N)=O)NC(=O)[C@H](CC(N)=O)NC1=O (H-CYFVNCPRG-NH2; disulfide 1-6)	Rattus norvegicus	1.0
N=C(N)NCCC[C@H](NC(=O)[C@@H]1CCCN1C(=O)[C@@H]1CSSC[C@H](N)C(=O)NC2(Cc3ccccc3C2)C(=O)N[C@@H](Cc2ccccc2)C(=O)N[C@@H](CCC(N)=O)C(=O)N[C@@H](CC(N)=O)C(=O)N1)C(=O)NCC(N)=O (H-C[Aic]FQNCPRG-NH2; disulfide 1-6)	Rattus norvegicus	1.0
N=C(N)NCCC[C@@H](NC(=O)[C@@H]1CCCN1C(=O)[C@@H]1CSSCCC(=O)N[C@H](C(c2ccccc2)c2ccccc2)C(=O)N[C@@H](Cc2ccccc2)C(=O)N[C@@H](CCC(N)=O)C(=O)N[C@@H](CC(N)=O)C(=O)N1)C(=O)NCC(N)=O	Rattus norvegicus	0.0
N=C(N)NCCC[C@@H](NC(=O)[C@@H]1CCCN1C(=O)[C@@H]1CSSC[C@H](N)C(=O)N[C@@H](C(c2ccccc2)c2ccccc2)C(=O)N[C@@H](Cc2ccccc2)C(=O)N[C@@H](CCC(N)=O)C(=O)N[C@@H](CC(N)=O)C(=O)N1)C(=O)NCC(N)=O	Rattus norvegicus	1.0
